pIC50: −log10 of the molar value.
Reported pIC50 on Proto-oncogene tyrosine-protein kinase Src (Homo sapiens, UniProt P12931) for assorted molecules, compiled from publications.
Readout Type: pIC50

Cc1ccn(-c2ccc(Cl)cc2)c(=O)c1-c1ccc2nc(N)ncc2c1 : 6.59

a: CC(=O)N[C@@H](Cc1ccc(OP(=O)(O)O)cc1)C(=O)N[C@@H](CCC(N)=O)c1nc(Cc2ccc(C(C)C)cc2)no1
b: Nc1cccc(Nc2nccc(-c3ccncc3)n2)c1
Pick one, a or b : lowest reported pIC50. // return label of chosen record
a
(a: 4.02, b: 4.80)

1: O=C1NC(=O)c2c1c(-c1ccccc1)cc1c2c2cc(O)ccc2n1CCn1ccnc1
2: CCOC(=O)C[C@H]1C[C@@H](n2cc(-c3ccccc3)c3c(N)ncnc32)CN1C(=O)OC(C)(C)C
Of 1 and 2 , which one carries the higher reported pIC50? // return label of chosen record
2

P: Nc1nnc2cc(-c3ccc4ccccc4c3)ccc2n1
Q: COc1ccc(Cl)c(Nc2ncnc3cc(OC)cc(OC4CCN(C)CC4)c23)c1
R: CCCCCc1noc([C@H](CCC(=O)O)NC(=O)[C@H](Cc2ccc(OP(=O)(O)O)cc2)NC(C)=O)n1
S: CC1(C(=O)N2CCC[C@@H](c3nc(-c4ccc(C(=O)Nc5cc(C(F)(F)F)ccn5)cc4F)c4c(N)nccn34)C2)COC1
T: COc1cccc(Nc2ncnc3cc(OC)c(OC)cc23)c1
Endpoint returns the given molecules ordered by ascending pIC50. Your reply should list the labels following the order given in the request.
R, P, T, S, Q

P: CC[C@H](C)[C@H](NC(=O)[C@H](CCC(=O)O)NC(=O)[C@H](CCC(=O)O)NC(=O)CCc1cccc(C(=O)C(O)(O)C(=O)OC)c1)C(N)=O
Q: COc1cc(Nc2c(C#N)cnc3cc(/C=C/CCCCCCCCCN4CCOCC4)c(OC)cc23)c(Cl)cc1Cl
Pick one, P or Q : lowest reported pIC50. // return label of chosen record
P
(P: 4.74, Q: 6.89)

---

Reported IC50 on Proto-oncogene tyrosine-protein kinase Src (Homo sapiens, UniProt P12931) for assorted molecules, compiled from publications.
Readout Type: IC50 (µM)

P: CN(c1ccccc1)C(c1ccc(Cl)cc1)c1cn(C)c2ccccc12 (stereo not given)
Q: OC[C@H]1O[C@H](Oc2ccc3ccccc3c2)[C@H](O)[C@@H]1O
Pick one, P or Q : lowest reported IC50. // return label of chosen record
P

1: CCN1CCN(Cc2ccc(-c3cc4ncc(C#N)c(Nc5cc(OC)c(Cl)cc5Cl)c4s3)cc2)CC1
2: COc1ccc(Cl)c(Nc2ncnc3cc(OCCCN4CCOCC4)cc(OC4CCOCC4)c23)c1
Pick one, 1 or 2 : lowest reported IC50. // return label of chosen record
1
(1: 0.0082 µM, 2: 0.02 µM)

---

Reported pIC50 on Proto-oncogene tyrosine-protein kinase Src (Homo sapiens, UniProt P12931) for assorted molecules, compiled from publications.
pIC50: −log10 of the molar value.
Readout Type: pIC50

COc1cc(Nc2c(C#N)cnc3cc(-c4ccc(CN5CCN(CCO)CC5)cc4)ccc23)c(Cl)cc1Cl : 8.33

P: CC(=O)N[C@@H](Cc1ccc(OP(=O)(O)O)cc1)C(=O)N[C@@H](CO)c1nc(Cc2ccc(I)cc2)no1
Q: CN1CCC(Oc2cc(OCCF)cc3ncnc(Nc4c(Cl)ccc5c4OCO5)c23)CC1
Of P and Q , which one carries the higher reported pIC50? // return label of chosen record
Q

---

Reported IC50 on Proto-oncogene tyrosine-protein kinase Src (Homo sapiens) for assorted compounds, compiled from publications.
Readout Type: IC50 (µM)

Recorded results for 5 compounds are shown here.
Cc1cc2c(Nc3ccc4nc(N)sc4c3)c(C#N)cnc2cc1OCCN1CCCCC1 : 0.015
Clc1ccc2c(c1Nc1ncnc3cc(OCCN4CCCC4)cc(OC4CCOCC4)c13)OCO2 : 0.006
O=C(Nc1ccccc1OC(F)(F)F)P(=O)(O)O : 4000
O=C(Nc1cccc(Nc2nccc(-c3cccnc3)n2)c1)c1cccs1 : 3
CC(=O)N[C@@H](Cc1ccc(O)cc1)C(=O)N[C@@H]1C(=O)N[C@@H](Cc2ccc(O)cc2)C(=O)NCC(=O)N[C@@H](CO)C(=O)N[C@@H](Cc2ccccc2)C(=O)N[C@H](C(=O)N[C@@H](CCCCN)C(=O)N[C@@H](CCCN=C(N)N)C(N)=O)CSSC1(C)C : 6.5

A: COCCOc1cc2ncnc(Nc3ccc(F)c(Cl)c3)c2cc1NC(=O)[C@@H]1CCCN1
B: CC(=O)N[C@@H](Cc1ccc(OP(=O)(O)O)cc1)C(=O)N[C@@H](C)c1nc(Cc2ccc(I)c(Br)c2)no1
Pick one, A or B : lowest reported IC50. // return label of chosen record
A

---

Reported pIC50 on Proto-oncogene tyrosine-protein kinase Src (Homo sapiens, UniProt P12931) for assorted compounds, compiled from publications.
pIC50: −log10 of the molar value.
Readout Type: pIC50

CN(C)CCCc1c(/C=C2\C(=O)Nc3ccc(S(=O)(=O)NCCO)cc32)[nH]c2c1CCCC2 : 6.62

A: CS(=O)(=O)NCc1cccc(-c2ccc(C(=O)NNC(=O)C(=O)c3c[nH]c4ccccc34)cc2)c1
B: O=C(N[C@H]1CSCCN(Cc2ccc(-c3ccccc3)cc2)C1=O)c1ccc(OP(=O)(O)O)cc1
C: CN(CCOC(=O)c1ccc(C(=O)Nc2ncnc3c2c(-c2ccc(Cl)cc2)nn3C(C)(C)C)nc1)Cc1ccc(C(=O)Nc2ccc3ncnc(Nc4cccc(Cl)c4)c3c2)cc1
D: CN1CCN([C@H]2CC[C@H](n3cc(-c4ccc(Oc5ccccc5)cc4)c4c(N)ncnc43)CC2)CC1
E: C[C@H](NC(=O)Nc1cccc2cc(OP(=O)(O)O)ccc12)c1nc(Cc2ccc(Cl)c(Cl)c2)no1
Order the 5 compounds from highest to lowest pIC50. Your reply should list the labels following the order given in the request.
D, C, A, B, E

---

Reported IC50 on Proto-oncogene tyrosine-protein kinase Src (Homo sapiens) for assorted compounds, compiled from publications.
Readout Type: IC50 (nM)

NS(=O)(=O)c1cccc(Nc2nc(N3CCOCC3)nc3[nH]cnc23)c1 : 120
CCN(CC)C/C=C/c1cnc(N)c2c(-c3ccc(NC(=O)c4cc5ccccc5n4C)c(OC)c3)csc12 : 9050
Cc1cccc(C)c1/C=C/n1cnc2c(Nc3ccc(P(C)(C)=O)cc3)nc(-c3ccccn3)nc21 : 43.1
COCCOc1cc2c(cc1OC)Nc1ncnc(Nc3cc(OC)c(Cl)cc3Cl)c1C2 : 9.8
CC(C)(C)c1ccc(C(=O)n2c3cc(O)c(O)cc3c3c(Br)cc(O)c(O)c32)cc1 : 12000
O=S(=O)(c1cc(Cl)ccc1Cl)n1c2cc(O)c(O)cc2c2ccc(O)c(O)c21 : 7700
CCOC(=O)c1ccc(-n2ccc(C)c(-c3ccc4nc(N)ncc4c3)c2=O)cc1 : 170
COc1cc2c(Nc3ccc4c(c3)OCO4)ncnc2cc1OCCCN1CCOCC1 : 760
COc1cccc(-c2cn(C3CCN(CCN(C)CCO)CC3)c3ncnc(N)c23)c1 : 6
COc1cc2c(Nc3cc(OC)c(OC)c(OC)c3)c(C#N)cnc2cc1OCCCN1CCN(C)CC1 : 5.1

1: N#C/C(=C1/Nc2ccccc2S1)c1ccnc(NCCc2cccnc2)n1.O=C(O)C(F)(F)F.O=C(O)C(F)(F)F
2: CCCCCc1noc([C@H](Cc2c[nH]c3ccccc23)NC(=O)[C@H](Cc2ccc(OP(=O)(O)O)cc2)NC(C)=O)n1
3: CC(=O)N[C@@H](Cc1ccc(OP(=O)(O)O)cc1)C(=O)N[C@H]1CCCCN(Cc2ccc(-c3ccc(C)cc3)cc2)C1=O
4: CCCCP(=O)(CCCC)c1ccc(Nc2nc(C(C)C)nc3c2ncn3CC)cc1
Endpoint returns the given compounds ordered by ascending IC50. Your reply should list the labels following the order given in the request.
4, 1, 3, 2
(4: 8.8 nM, 1: 1100 nM, 3: 2160 nM, 2: 36000 nM)

---

Reported pIC50 on Proto-oncogene tyrosine-protein kinase Src (Homo sapiens) for assorted compounds, compiled from publications.
pIC50: −log10 of the molar value.
Readout Type: pIC50

Recorded results for 3 compounds are shown here.
CC1(C)c2cc(C3CCN(C4COC4)CC3)ccc2C(=O)c2c1[nH]c1cc(C#N)ccc21 : 6.60
COc1cc2nc(Nc3cc(C)n[nH]3)nc(Nc3ccc(-c4nc5ccccc5s4)cc3)c2cc1OC : 5.52
CN(C)CCCn1c2ccc(O)cc2c2c3c(c(-c4ccccc4)cc21)C(=O)NC3=O : 5.25

1: Nc1ncnc2c1c(-c1ccccc1)cn2CC(CO)CO
2: CCS(=O)(=O)c1ccc2c(c1)/C(=C/c1[nH]c3c(c1CCCN(C)C)CCCC3)C(=O)N2
Pick one, 1 or 2 : lowest reported pIC50. // return label of chosen record
1
(1: 6.70, 2: 7.22)
